test: Half life in BALB/C mouse at 10 mg/kg, po or 2 mg/kg, iv by LC-MS/MS method; assay type: ADME, organism-based; settings: BALB/C, in vivo
measurementType: log10 half-life (log10 of the value in h)
Reminder: these figures are log10 of reported half-life, in h before transformation.

Exercise: Item under review: CN1C[C@H](C(=O)Nc2ccc(Cl)cc2)[C@@H](c2ccc(/C=C/C(=O)Nc3ccccc3N)cc2F)C1 (racemic) . Reported log10 half-life?
Key: 0.53

Exercise: Item under review: Nc1ccccc1NC(=O)/C=C/c1ccc([C@H]2CN(CCO)C[C@@H]2C(=O)Nc2ccc(Cl)cc2)cc1 (racemic) . Reported log10 half-life?
Key: 1.18

Exercise: Item under review: CC(C)N1C[C@H](C(=O)Nc2ccc(Cl)cc2)[C@@H](c2ccc(/C=C/C(=O)Nc3ccccc3N)cc2)C1 (racemic) . Reported log10 half-life?
Key: 0.73

Exercise: Item under review: Nc1ccccc1NC(=O)/C=C/c1ccc([C@H]2CN(C3CCOCC3)C[C@@H]2C(=O)Nc2ccc(Cl)cc2)cc1 (racemic) . Reported log10 half-life?
Key: 0.69

Exercise: Item under review: CC(C)(C)N1C[C@H](C(=O)Nc2ccc(Cl)cc2)[C@@H](c2ccc(/C=C/C(=O)Nc3ccccc3N)cc2)C1 (racemic) . Reported log10 half-life?
Key: 0.83

Exercise: Item under review: CC(C)(O)CN1C[C@H](C(=O)Nc2ccc(Cl)cc2)[C@@H](c2ccc(/C=C/C(=O)Nc3ccccc3N)cc2)C1 (racemic) . Reported log10 half-life?
Key: 0.81

Exercise: Item under review: CN1C[C@@H](C(=O)Nc2ccc(Cl)cc2)[C@H](c2ccc(/C=C/C(=O)Nc3ccccc3N)cc2)C1 . Reported log10 half-life?
Key: 0.79

Exercise: Item under review: CN1C[C@H](C(=O)Nc2ccc(F)c(F)c2)[C@@H](c2ccc(/C=C/C(=O)Nc3ccccc3N)cc2)C1 (racemic) . Reported log10 half-life?
Key: 0.60

Exercise: Item under review: CC(C)(CO)N1C[C@H](C(=O)Nc2ccc(Cl)cc2)[C@@H](c2ccc(/C=C/C(=O)Nc3ccccc3N)cc2)C1 (racemic) . Reported log10 half-life?
Key: 0.04

###

Assign AUC to each entry below.
test: AUC in BALB/C mouse at 10 mg/kg, po or 2 mg/kg, iv by LC-MS/MS method; type: ADME, organism-based, Plasma; conditions: BALB/C, plasma
Answer with a number only, understood to be in ng·h/mL.

Exercise: Item under review: CC(C)(O)CN1C[C@H](C(=O)Nc2ccc(Cl)cc2)[C@@H](c2ccc(/C=C/C(=O)Nc3ccccc3N)cc2)C1 (racemic) . Reported AUC?
Key: 5650

Exercise: Item under review: CN1C[C@H](C(=O)Nc2ccc(Cl)cc2)[C@@H](c2ccc(/C=C/C(=O)Nc3ccccc3N)cc2F)C1 (racemic) . Reported AUC?
Key: 3570

Exercise: Item under review: CN1C[C@@H](C(=O)Nc2ccc(Cl)cc2)[C@H](c2ccc(/C=C/C(=O)Nc3ccccc3N)cc2)C1 . Reported AUC?
Key: 2540

Exercise: Item under review: Nc1ccccc1NC(=O)/C=C/c1ccc([C@H]2CN(CCO)C[C@@H]2C(=O)Nc2ccc(Cl)cc2)cc1 (racemic) . Reported AUC?
Key: 7100

Exercise: Item under review: CC(C)(CO)N1C[C@H](C(=O)Nc2ccc(Cl)cc2)[C@@H](c2ccc(/C=C/C(=O)Nc3ccccc3N)cc2)C1 (racemic) . Reported AUC?
Key: 743

Exercise: Item under review: CC(C)(C)N1C[C@H](C(=O)Nc2ccc(Cl)cc2)[C@@H](c2ccc(/C=C/C(=O)Nc3ccccc3N)cc2)C1 (racemic) . Reported AUC?
Key: 813

Exercise: Item under review: Nc1ccccc1NC(=O)/C=C/c1ccc([C@H]2CN(C3CCOCC3)C[C@@H]2C(=O)Nc2ccc(Cl)cc2)cc1 (racemic) . Reported AUC?
Key: 1000

Exercise: Item under review: CN1C[C@H](C(=O)Nc2ccc(F)c(F)c2)[C@@H](c2ccc(/C=C/C(=O)Nc3ccccc3N)cc2)C1 (racemic) . Reported AUC?
Key: 911

Exercise: Item under review: CC(C)N1C[C@H](C(=O)Nc2ccc(Cl)cc2)[C@@H](c2ccc(/C=C/C(=O)Nc3ccccc3N)cc2)C1 (racemic) . Reported AUC?
Key: 2080
